Tested on: UACC-257 melanoma
MEASUREMENT NOTES: NCI tumour cell line growth inhibition, 48 h; in the data active means GI50 below about 0.43 µM; inactive means the rest
Your reply should match one of these outcome classes. active, inactive

Solved cases (4 shown):
[[record]]
molecule = "NC(=O)c1cccnc1"
assigned_class = "inactive"

[[record]]
molecule = "CC(=O)OC(C(=O)[O][Sn]([CH3])([CH3])[CH3])c1ccccc1 (stereo unspecified)"
assigned_class = "inactive"

[[record]]
molecule = "Cn1cc(-c2cc(-c3cn(C)c4ccc(Cl)cc34)[nH]n2)c2cc(Cl)ccc21"
assigned_class = "inactive"

[[record]]
molecule = "CCn1cc(/C=C2\\Oc3cc(OCC#N)ccc3C2=O)c2cc(OC)ccc21"
assigned_class = "inactive"


Problem: Answer briefly: the call reported for "CCCCCCCCCc1ccc(OCCOCCOCCOCCOCCOCCOCCOCCOCCO)cc1" in this assay.
Solution: active

Problem: Answer briefly: the call reported for C/C(=C(/c1ccccc1)c1ccc(OCC(O)CNCCN2CCOCC2)cc1)c1ccccc1 (stereo unspecified) in this assay.
Solution: inactive

Problem: Answer briefly: the call reported for "CCOC(=O)c1sc(-c2ccc(OS(=O)(=O)C[C@]34CCC(CC3=O)C4(C)C)c(C=O)c2)nc1C" in this assay.
Solution: inactive

Problem: Answer briefly: the call reported for "Cc1cc(CCl)c(C)cc1CCl" in this assay.
Solution: inactive

Problem: Answer briefly: the call reported for "CCCCCCNCCCNc1c2cc(OC)ccc2nc2cccc([N+](=O)[O-])c12" in this assay.
Solution: inactive

Problem: Answer briefly: the call reported for "COc1ccc(-c2nc(-c3nc4cc(Cl)c(F)cc4[nH]3)c3ccccn23)cc1" in this assay.
Solution: inactive

Problem: Answer briefly: the call reported for CC(NC(=O)Cc1ccc(C(F)(F)P(=O)(OCc2ccc([N+](=O)[O-])o2)N(C)CCCCCl)cc1)c1ccc(OCC2CCCCC2)c(C(N)=O)c1 (stereo unspecified) in this assay.
Solution: inactive

---

Test system: HOP-62 NSCLC
MEASUREMENT NOTES: NCI tumour cell line growth inhibition, 48 h
QUANTITY: TGI

Observe how each entry below is paired with its result.
[[record]]
compound = "CC(=O)c1ccc2c(c1)N(CCCN1CCN(CCO)CC1)c1ccccc1S2"
quantity = "TGI"
experimental_result = "4.77 µM"

[[record]]
compound = "CCOC(=O)NC(Nc1cc(Cl)ccc1OC)(C(F)(F)F)C(F)(F)F"
quantity = "TGI"
experimental_result = "> 100 µM"

[[record]]
compound = "COC/N=C(\\NC#N)NCOC"
quantity = "TGI"
experimental_result = "> 100 µM"


// below: TGI requested for another compound
Problem: So what TGI did "O=c1[nH]c(SCc2cccc([N+](=O)[O-])c2)nc2nc[nH]c12" get with HOP-62 NSCLC?
Solution: > 100 µM

---

Each entry below lists one item and its recorded GI50 value.
System: OVCAR-4 ovarian
MEASUREMENT NOTES: NCI tumour cell line growth inhibition, 48 h

[[record]]
compound = "COc1ccc(-c2nc(-c3nc4cc(Cl)c(F)cc4[nH]3)c3ccccn23)cc1"
target_system = "OVCAR-4 ovarian"
experimental_result = "7.93 µM"

[[record]]
compound = "N=c1ccc2nc3ccc(N)cc3sc-2c1"
target_system = "OVCAR-4 ovarian"
experimental_result = "3.78 µM"

[[record]]
compound = "COc1ccc(C2=NC(=O)NC2c2ccc(OC)cc2)cc1 (centres undefined)"
target_system = "OVCAR-4 ovarian"
experimental_result = "31.5 µM"

[[record]]
compound = "COc1cc(OC)c2sc(-c3ccc(-n4cncc4-c4ccc(OC)c(OC)c4)cc3)nc2c1"
target_system = "OVCAR-4 ovarian"
experimental_result = "4.21 µM"

[[record]]
compound = "COc1cc(OCc2cccc(-c3ccccc3)c2C)cc(OC)c1CN1CCCCC1C(=O)NCCOCCOCCN (centres undefined)"
target_system = "OVCAR-4 ovarian"
experimental_result = "2.33 µM"

[[record]]
compound = "CCOc1cc(/C=C/C(=O)C(C(=O)/C=C/c2ccc(OC(=O)CNc3nc4ccccc4[nH]3)c(OCC)c2)C(=O)CNc2nc3ccccc3[nH]2)ccc1OC(=O)CNc1nc2ccccc2[nH]1"
target_system = "OVCAR-4 ovarian"
experimental_result = "3.39 µM"

[[record]]
compound = "COc1cc([C@@H]2c3cc4c(cc3[C@H](OC(C)=O)[C@H]3COC(=O)[C@@H]23)OCO4)cc(OC)c1OC"
target_system = "OVCAR-4 ovarian"
experimental_result = "2.11 µM"

[[record]]
compound = "COc1ccc(C(=O)c2sc3nc(-c4ccccc4OC)ccc3c2N)cc1OC"
target_system = "OVCAR-4 ovarian"
experimental_result = "7.49 µM"


Problem: Need GI50 of "CCCN(CCC)c1ccc(C=O)c(Cl)c1" , thanks.
Solution: 0.78 µM

---

Each entry below lists one item and its recorded TGI value.
System: HOP-62 NSCLC
MEASUREMENT NOTES: NCI tumour cell line growth inhibition, 48 h

[[record]]
compound = "CCCCCCCCCc1ccc(OCCOCCOCCOCCOCCOCCOCCOCCOCCO)cc1"
target_system = "HOP-62 NSCLC"
quantity = "TGI"
experimental_result = "1.05 µM"


Problem: Need TGI of O=C(NN1C(=O)CSC1c1cccc(Cl)c1)C(O)c1ccccc1 (stereo unspecified) , thanks.
Solution: > 100 µM

Problem: Need TGI of "CCOc1ccc(N=C(NC(=O)c2ccccc2)SC)cc1" , thanks.
Solution: > 100 µM

Problem: Need TGI of "Cc1ccc(S(=O)(=O)c2nc(-c3ccccc3)oc2S(C)(=O)=O)cc1" , thanks.
Solution: 26.1 µM

Problem: Need TGI of C/C(=C(/c1ccccc1)c1ccc(OCC(O)CNCCN2CCOCC2)cc1)c1ccccc1 (stereo unspecified) , thanks.
Solution: 5.69 µM

Problem: Need TGI of "CCc1ccc2[nH]c(O)c(C3=Nc4ccccc4C3=O)c2c1" , thanks.
Solution: 41.4 µM

Problem: Need TGI of O=C(NN1C(=O)C(Cl)C1c1cccc([N+](=O)[O-])c1)c1ccccc1O (stereo unspecified) , thanks.
Solution: > 100 µM

---

System: A549 NSCLC
MEASUREMENT NOTES: NCI tumour cell line growth inhibition, 48 h
Each entry below lists one item and its recorded TGI value.

Observe how each entry below is paired with its result.
[[record]]
compound = "Clc1ccc(-c2cc(-c3cc4cc(Br)ccc4nc3Cl)on2)cc1"
experimental_result = "> 50 µM"

[[record]]
compound = "Cc1ccc2nc3n[nH]c(N)c3nc2c1"
experimental_result = "> 100 µM"

[[record]]
compound = "CC1CC2(S(=O)(=O)c3ccccc3)ON1CC2S(=O)(=O)c1ccccc1 (stereo unspecified)"
experimental_result = "> 100 µM"

[[record]]
compound = "CN/N=C(/c1nc2ccc([N+](=O)[O-])cc2[nH]c1=O)C(O)c1ccc(C(O)/C(=N\\NC)c2nc3ccc([N+](=O)[O-])cc3[nH]c2=O)cc1 (stereo unspecified)"
experimental_result = "> 100 µM"

[[record]]
compound = "CCOC(=O)c1ccc(NC(=O)NC2=NCCS2)cc1"
experimental_result = "> 100 µM"

[[record]]
compound = "COc1ccc2oc(S(=O)(=O)N3CC(CCl)c4ccc(N)cc43)cc2c1 (stereo unspecified)"
experimental_result = "> 100 µM"

[[record]]
compound = "Cc1ccc(S(=O)(=O)CNC(=O)C(O)(O)C(F)(F)F)cc1"
experimental_result = "> 100 µM"

[[record]]
compound = "COc1ccc(-c2c(-c3ccc(OC)cc3)n3c(=O)n(C)c(=O)n23)cc1"
experimental_result = "> 100 µM"


// below: TGI requested for another compound
Problem: Need TGI of Cc1ccc(O)c(C2=CC3=NNC(=O)C3C(c3cccc(Cl)c3)C2)c1 (stereo unspecified) , thanks.
Solution: > 100 µM

---

Test system: HL-60(TB) leukemia
MEASUREMENT NOTES: NCI tumour cell line growth inhibition, 48 h
Each entry below lists one item and its recorded GI50 value.

[[record]]
molecule = "COc1cc(OC)c2sc(-c3ccc(-n4cncc4-c4ccc(OC)c(OC)c4)cc3)nc2c1"
experimental_result = "3.09 µM"

[[record]]
molecule = "CC(=O)c1ccc2c(c1)N(CCCN1CCN(CCO)CC1)c1ccccc1S2"
experimental_result = "2.12 µM"


Problem: Need GI50 of "C=C(CN1CCc2c([nH]c3ccccc23)C1)c1ccc(C(=O)Nc2ccccc2N)cc1" , thanks.
Solution: 0.67 µM

Problem: Need GI50 of CC(NC(=O)Cc1ccc(C(F)(F)P(=O)(OCc2ccc([N+](=O)[O-])o2)N(C)CCCCCl)cc1)c1ccc(OCC2CCCCC2)c(C(N)=O)c1 (stereo not given) , thanks.
Solution: 1.89 µM

Problem: Need GI50 of "C=C1C(=O)O[C@H]2[C@H]1CC/C(Cn1cc(-c3ccc(N)cc3)nn1)=C\CC[C@@]1(C)O[C@@H]21" , thanks.
Solution: 2.23 µM

Problem: Need GI50 of "CN(Cc1ccc(F)cc1)c1ccc(CO)c(Cl)c1" , thanks.
Solution: 12.5 µM

Problem: Need GI50 of "CCOC(=O)c1ccc(NC(=O)NC2=NCCS2)cc1" , thanks.
Solution: 0.503 µM

Problem: Need GI50 of "COc1ccc(-c2cnnn2-c2nonc2-n2cccc2)cc1OC" , thanks.
Solution: 3.09 µM

Problem: Need GI50 of "C=C1C(=O)O[C@H]2[C@H]1CC/C(COC(=O)NCc1ccc(Cn3c(=O)sn(CCCCC)c3=O)cc1)=C\CC[C@@]1(C)O[C@@H]21" , thanks.
Solution: 1.1 µM

Problem: Need GI50 of O=C(CC1(O)C(=O)Nc2ccc(F)cc21)c1ccc(C(=O)NCC2CCC3(CC2)OOC2(CCCCC2)OO3)cc1 (stereo not given) , thanks.
Solution: 1.43 µM

Source listed as PubChem BioAssay (NCI).
